test system: SNB-19 CNS; assay: NCI tumour cell line growth inhibition, 48 h
Measured TGI of individual entries
Give the value in µM but do not write µM after it.

compound | resultUnit | TGI
CN1CCCC(C(=O)OCC(=O)C2(O)CCC3C4CCC5=CC(=O)CCC5(C)C4C(O)CC32C)C1 (centres undefined) | µM | 30.9

# context switch: different compound, same TGI
TGI for CC/C=C/C(/C=C/C[C@]1(CC)C[C@H](CC)[C@H](CC(=O)O)OO1)CC (some centres undefined) ? 12

---

Measured TGI of individual entries
system: RPMI-8226 leukemia; test: NCI tumour cell line growth inhibition, 48 h

molecule | TGI
Cc1ccccc1NC(=O)CSc1nnc(Cc2ccccc2)o1 | > 100 µM
Cc1c(C(N)=O)sc2c1c(=O)n(Cc1ccccc1)c1nnc(S(=O)(=O)CC(=O)Nc3ccc(Cl)cc3)n21 | > 100 µM
CC(=O)C1=NN(c2ccccc2)C2(S1)SC(c1ccccc1)(c1ccccc1)c1ccccc12 (stereo not given) | > 100 µM
CN(C)N=Nc1nn(C(=O)Nc2ccc(Cc3ccccc3)cc2)c2ccccc12 | > 100 µM
COC(=O)CCC1(O)C=CC(=O)C=C1 | > 100 µM
CCCCCCCCCCCCCCCCCc1nnc(N)o1 | > 100 µM
C=CC[C@H]1[C@H](O[Si](C)(C)C(C)(C)C)C=CC(=O)[C@@H]1CC(=O)OCC | 12.2 µM
Nc1ccc(C2=Nc3ccccc3SC(c3ccccc3O)C2)cc1 (stereo not given) | 49.7 µM
Cc1nc2nn(C)cc2c(=O)n1/N=C/c1ccccc1 | > 100 µM

# context switch: different molecule, same TGI
TGI for Cn1nc(C(=O)N2CC(CCl)c3c2cc([N+](=O)[O-])c2ccccc32)cc1NC(=O)Nc1cc(C(=O)N2CC(CCl)c3c2cc([N+](=O)[O-])c2ccccc32)nn1C (stereo not given) ? > 100 µM
